# targetSystem: MAGL (Mus musculus (Mouse), UniProt O35678)
# Sequence (O35678 whole entry): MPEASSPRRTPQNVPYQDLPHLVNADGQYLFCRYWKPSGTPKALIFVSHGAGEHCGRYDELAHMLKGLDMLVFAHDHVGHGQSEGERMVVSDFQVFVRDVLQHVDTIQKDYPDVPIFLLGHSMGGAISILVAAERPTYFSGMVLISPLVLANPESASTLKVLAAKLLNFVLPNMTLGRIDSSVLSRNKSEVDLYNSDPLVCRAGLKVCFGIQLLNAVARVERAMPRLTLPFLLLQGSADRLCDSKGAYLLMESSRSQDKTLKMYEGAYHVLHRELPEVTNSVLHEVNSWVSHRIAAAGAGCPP
# measurementDescription: Competitive ABPP, % inhibition at 1 uM, MAGL
# Assay type: biochemical
endpoint: inhibition at 1 µM

# lookup: Cc1nc(-c2ccccc2F)ccc1CN1CCN(C(=O)OC(C(F)(F)F)C(F)(F)F)CC1 [Example 11c] on MAGL (Mus musculus (Mouse), UniProt O35678), inhibition at 1 µM = 25 to 75%

# lookup: CC(C)c1cc(-c2ccccc2)ccc1CN1CCN(C(=O)OC(C(F)(F)F)C(F)(F)F)CC1 [Example 9at] on MAGL (Mus musculus (Mouse), UniProt O35678), inhibition at 1 µM = 25 to 75%

# lookup: Cc1cc(-c2ccc(CN3CCN(C(=O)OC(C(F)(F)F)C(F)(F)F)CC3)c(C)c2)ccn1 [Example 11i] on MAGL (Mus musculus (Mouse), UniProt O35678), inhibition at 1 µM = 25 to 75%

# lookup: Cc1ccccc1-c1ccc(CN2CCN(C(=O)OC(C(F)(F)F)C(F)(F)F)CC2)nc1C [Example 11u] on MAGL (Mus musculus (Mouse), UniProt O35678), inhibition at 1 µM = 25 to 75%

# lookup: Cc1cc(-c2cccnc2C)ccc1CN1CCN(C(=O)OC(C(F)(F)F)C(F)(F)F)CC1 [Example 11s] on MAGL (Mus musculus (Mouse), UniProt O35678), inhibition at 1 µM = 25 to 75%

###

# targetSystem: MAGL (Mus musculus (Mouse))
# measurementDescription: In vitro competitive activity-based protein profiling (FP-Rh), mouse MAGL
# Assay type: biochemical
# testSettings: mouse brain membrane proteome, competitive ABPP (Table 7)
endpoint: IC50

- CS(=O)(=O)N1CCN(c2cc(Cl)ccc2CN2CCN(C(=O)OC(C(F)(F)F)C(F)(F)F)CC2)CC1: < 100 nM

O=C(OC(C(F)(F)F)C(F)(F)F)N1CCN(Cc2ccc(Cl)cc2N2CCN3CCC[C@@H]3C2)CC1 yielded IC50 of < 100 nM

O=C(OC(C(F)(F)F)C(F)(F)F)N1CCN(Cc2ccc(-c3ccccc3)cc2N2CCOCC2)CC1 [Example 11f] yielded IC50 of > 1000 nM

Cc1ccc(CN2CCN(C(=O)OC(C(F)(F)F)C(F)(F)F)CC2)cc1 yielded IC50 of < 100 nM

O=C(OC(C(F)(F)F)C(F)(F)F)N1CCN(Cc2ccc(N3CCOCC3)c(Cl)c2)CC1 yielded IC50 of 100 to 1000 nM

O=C(OC(C(F)(F)F)C(F)(F)F)N1CCN(Cc2cc(Cl)ccc2N2CCCC2)CC1 yielded IC50 of < 100 nM

O=C(OC(C(F)(F)F)C(F)(F)F)N1CCN(Cc2cccc(F)c2N2CCCC2)CC1 yielded IC50 of 100 to 1000 nM

CC(=O)N[C@@H]1CCN(c2cc(Cl)ccc2CN2CCN(C(=O)OC(C(F)(F)F)C(F)(F)F)CC2)C1 yielded IC50 of < 100 nM

CC(=O)N1CCN(c2cc(Cl)ccc2CN2CCN(C(=O)OC(C(F)(F)F)C(F)(F)F)CC2)CC1 yielded IC50 of 100 to 1000 nM

CC(C)n1cc(CN2CCN(C(=O)OC(C(F)(F)F)C(F)(F)F)CC2)c(-c2ccccc2)n1 [Example 10h] yielded IC50 of 100 to 1000 nM

O=C(OC(C(F)(F)F)C(F)(F)F)N1CCN(Cc2ccc(N3CCCC3)cc2OC(F)(F)F)CC1 yielded IC50 of 100 to 1000 nM

O=C(OC(C(F)(F)F)C(F)(F)F)N1CCN(Cc2ccc(Br)cc2N2CCCCC2)CC1 yielded IC50 of 100 to 1000 nM

O=C(OC(C(F)(F)F)C(F)(F)F)N1CCN(Cc2cccc(Cl)c2N2CCCC2)CC1 yielded IC50 of < 100 nM

Cc1cc(N2CCOCC2)ccc1CN1CCN(C(=O)OC(C(F)(F)F)C(F)(F)F)CC1 yielded IC50 of < 100 nM

Cn1ncc(Br)c1CN1CCN(C(=O)OC(C(F)(F)F)C(F)(F)F)CC1 [Example 10f] yielded IC50 of 100 to 1000 nM

O=C(OC(C(F)(F)F)C(F)(F)F)N1CCN(Cc2cccc(F)c2N2CCOCC2)CC1 yielded IC50 of < 100 nM

COc1cc(N2CCOCC2)ccc1CN1CCN(C(=O)OC(C(F)(F)F)C(F)(F)F)CC1 yielded IC50 of < 100 nM

COc1ccc(CN2CCN(C(=O)OC(C(F)(F)F)C(F)(F)F)CC2)cc1 yielded IC50 of < 100 nM

CC(=O)NC1CCN(c2cc(Cl)ccc2CN2CCN(C(=O)OC(C(F)(F)F)C(F)(F)F)CC2)C1 (centres unmarked) yielded IC50 of 100 to 1000 nM

O=C(OC(C(F)(F)F)C(F)(F)F)N1CCN(Cc2ccc(Cl)cc2-n2cc(Cl)cn2)CC1 yielded IC50 of < 100 nM
